target: human FAAH (Homo sapiens, UniProt O00519); construct: host or cells: COS-7 cells, transient transfection; 13,000 g membrane fraction solubilised in 1% Triton X-100; assay: Human FAAH biochemical inhibition assay (AMC arachidonoyl amide fluorescence); details: Table 2, human FAAH (no asterisk); read-out: Activity (Ki)
Sequence (O00519 whole entry): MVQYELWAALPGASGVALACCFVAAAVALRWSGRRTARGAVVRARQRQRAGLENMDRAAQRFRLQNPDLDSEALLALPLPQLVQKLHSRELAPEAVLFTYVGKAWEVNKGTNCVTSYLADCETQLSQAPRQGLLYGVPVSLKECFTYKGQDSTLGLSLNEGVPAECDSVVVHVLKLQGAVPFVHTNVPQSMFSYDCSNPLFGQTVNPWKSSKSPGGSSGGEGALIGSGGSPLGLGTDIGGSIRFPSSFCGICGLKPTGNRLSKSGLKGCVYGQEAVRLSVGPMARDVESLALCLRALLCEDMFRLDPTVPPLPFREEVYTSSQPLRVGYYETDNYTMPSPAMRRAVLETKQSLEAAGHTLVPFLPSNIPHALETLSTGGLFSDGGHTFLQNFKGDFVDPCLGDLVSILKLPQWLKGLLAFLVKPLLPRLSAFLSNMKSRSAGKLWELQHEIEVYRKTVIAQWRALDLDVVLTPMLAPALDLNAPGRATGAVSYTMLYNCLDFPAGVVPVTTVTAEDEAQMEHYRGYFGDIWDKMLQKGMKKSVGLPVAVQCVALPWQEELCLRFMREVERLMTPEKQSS
Ki overview

Sample records with Ki:
OB(O)c1ccc(OCCc2ccc(C(F)(F)F)cc2)cc1F ... < 10 nM
OB(O)c1ccc(OCc2cnco2)cc1F ... 10 to 100 nM
c1ccc(Oc2ccc(B(Oc3cccc4cccnc34)c3ccccc3)cc2)cc1 ... < 10 nM
OB(O)c1ccc(Oc2cccc(F)c2)c(F)c1F ... < 10 nM

Problem: Recall the reported Ki of CC(C)(C)OC(=O)N1CCC[C@H]1COCc1ccc(B(O)O)cc1 on human FAAH (Homo sapiens, UniProt O00519) and write it down.
Result: 10 to 100 nM

Problem: Recall the reported Ki of OB(O)c1ccc(-c2ccco2)cc1 on human FAAH (Homo sapiens, UniProt O00519) and write it down.
Result: 10 to 100 nM

Problem: Recall the reported Ki of OB(O)c1ccc(-c2ccc(-c3ccccc3)c(F)c2)cc1F on human FAAH (Homo sapiens, UniProt O00519) and write it down.
Result: < 10 nM

Problem: Recall the reported Ki of O=C(NCc1ccccc1)c1cccc(Oc2ccc(B(O)O)cc2)c1 on human FAAH (Homo sapiens, UniProt O00519) and write it down.
Result: < 10 nM

Problem: Recall the reported Ki of CN(C)CCCC(=O)Nc1cccc(CCOc2ccc(B(O)O)c(F)c2)c1 on human FAAH (Homo sapiens, UniProt O00519) and write it down.
Result: 10 to 1000 nM

Problem: Recall the reported Ki of OB(O)c1ccc(COC2CCc3ccccc32)cc1 (centres unmarked) on human FAAH (Homo sapiens, UniProt O00519) and write it down.
Result: < 10 nM

Problem: Recall the reported Ki of CN(C)C(=O)c1ccc(Oc2ccc(B(O)O)cc2)cc1 on human FAAH (Homo sapiens, UniProt O00519) and write it down.
Result: 10 to 100 nM

Problem: Recall the reported Ki of OB(O)c1ccc(CN(Cc2ccccc2)Cc2ccccc2)cc1 on human FAAH (Homo sapiens, UniProt O00519) and write it down.
Result: 10 to 1000 nM

Problem: Recall the reported Ki of Cc1cc(COC(=O)c2ccc(B(O)O)cc2)ccc1F on human FAAH (Homo sapiens, UniProt O00519) and write it down.
Result: 10 to 100 nM

Problem: Recall the reported Ki of OB(c1ccccc1)c1ccc(Oc2ccccc2)cc1 on human FAAH (Homo sapiens, UniProt O00519) and write it down.
Result: 10 to 100 nM

Problem: Recall the reported Ki of Cc1ccc2scc(B(O)O)c2c1 on human FAAH (Homo sapiens, UniProt O00519) and write it down.
Result: 10 to 1000 nM

Problem: Recall the reported Ki of CCCCNC(=O)c1cccc(Oc2ccc(B(O)O)cc2)c1 on human FAAH (Homo sapiens, UniProt O00519) and write it down.
Result: < 10 nM

Problem: Recall the reported Ki of OB(O)c1ccc(CCCc2ccccc2)cc1F on human FAAH (Homo sapiens, UniProt O00519) and write it down.
Result: < 10 nM

Problem: Recall the reported Ki of OB(O)c1ccc(OCc2ccccn2)cc1F on human FAAH (Homo sapiens, UniProt O00519) and write it down.
Result: > 1000 nM

Problem: Recall the reported Ki of CC1(C)OB(c2ccc(Cn3ccc4ccccc43)cc2)OC1(C)C on human FAAH (Homo sapiens, UniProt O00519) and write it down.
Result: < 10 nM

Problem: Recall the reported Ki of OB(O)c1ccc(-c2cccc(-c3ccccc3)c2)cc1F on human FAAH (Homo sapiens, UniProt O00519) and write it down.
Result: < 10 nM

Problem: Recall the reported Ki of OB(O)c1ccc(OCc2cncs2)cc1F on human FAAH (Homo sapiens, UniProt O00519) and write it down.
Result: 10 to 100 nM

Problem: Recall the reported Ki of OB(O)c1ccc2sc(COc3ccccc3)cc2c1 on human FAAH (Homo sapiens, UniProt O00519) and write it down.
Result: < 10 nM

Problem: Recall the reported Ki of OB(O)c1ccc(CSc2ccccc2)cc1 on human FAAH (Homo sapiens, UniProt O00519) and write it down.
Result: < 10 nM

###

molecular target: human FAAH (Homo sapiens, UniProt O00519); construct: host or cells: COS-7 cells, transient transfection; 13,000 g membrane fraction solubilised in 1% Triton X-100; test: Human FAAH biochemical inhibition assay (AMC arachidonoyl amide fluorescence); settings: Table 2, human FAAH (no asterisk); read-out: Activity (Ki)
parameter measured: Ki

CN(C(=O)c1ccccc1)c1ccc(B(O)O)cc1 ... 10 to 1000 nM

Problem: Input OB(O)c1ccc(Oc2ccc3c(c2)OCO3)cc1 , output reported Ki.
Result: < 10 nM

Problem: Input Cc1cc(Oc2ccc(B(O)O)c(F)c2)ccc1Cl , output reported Ki.
Result: < 10 nM

Problem: Input OB(O)c1cccc(OCCCc2ccccc2)c1 , output reported Ki.
Result: 10 to 100 nM

Problem: Input CC(C)(C)c1ccc(-c2ccc(B(O)O)cc2)cc1 , output reported Ki.
Result: 10 to 1000 nM

Problem: Input Cc1ccc2ccc(B(O)O)c(F)c2n1 , output reported Ki.
Result: > 1000 nM

###

Biological target: rat FAAH (Rattus norvegicus)
Construct: Five rat livers are homogenized in five fold volume with ice cold Tris; from tissue; host or cells: rat liver; 40,000 g membrane pellet solubilised in 1% Triton X-100
Sequence (P97612 1-579): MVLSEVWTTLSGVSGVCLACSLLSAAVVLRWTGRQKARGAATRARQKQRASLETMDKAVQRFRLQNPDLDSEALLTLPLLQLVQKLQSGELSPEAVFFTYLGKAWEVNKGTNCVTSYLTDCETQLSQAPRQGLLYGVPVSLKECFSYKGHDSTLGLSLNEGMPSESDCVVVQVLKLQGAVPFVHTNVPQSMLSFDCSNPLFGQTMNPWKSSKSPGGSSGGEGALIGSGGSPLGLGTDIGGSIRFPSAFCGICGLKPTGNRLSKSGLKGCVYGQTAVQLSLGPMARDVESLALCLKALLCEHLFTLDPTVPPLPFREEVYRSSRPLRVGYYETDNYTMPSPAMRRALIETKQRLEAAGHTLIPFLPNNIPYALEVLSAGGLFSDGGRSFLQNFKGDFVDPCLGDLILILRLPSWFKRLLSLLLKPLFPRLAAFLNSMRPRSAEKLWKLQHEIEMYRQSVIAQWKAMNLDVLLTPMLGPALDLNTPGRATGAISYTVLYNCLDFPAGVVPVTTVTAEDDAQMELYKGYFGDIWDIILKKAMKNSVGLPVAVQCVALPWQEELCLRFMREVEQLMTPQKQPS
Assay: Rat FAAH biochemical inhibition assay (AMC arachidonoyl amide fluorescence)
Settings: Table 2, rat FAAH (asterisk)
pKi: −log10 of the molar value.
parameter measured: pKi

Problem: Input CCCCOc1cccc(B(O)O)c1 , output reported pKi.
Result: 6.00 to 8.00

###

molecular target: human FAAH (Homo sapiens); construct: host or cells: COS-7 cells, transient transfection; 13,000 g membrane fraction solubilised in 1% Triton X-100; assay: Human FAAH biochemical inhibition assay (AMC arachidonoyl amide fluorescence); conditions: Table 1, human FAAH (no asterisk); read-out: Activity (Ki)
pKi: −log10 of the molar value.
pKi overview

Problem: Input OB(O)c1cc(C(F)(F)F)cc(C(F)(F)F)c1 , output reported pKi.
Result: < 6.00

Problem: Input OB(O)c1ccc(I)cc1 , output reported pKi.
Result: 7.00 to 8.00

Problem: Input OB(O)c1cnc2ccccc2c1 , output reported pKi.
Result: < 6.00

Problem: Input CCC[C@H]1CC[C@H](c2ccc(B(O)O)cc2)CC1 , output reported pKi.
Result: > 8.00

Problem: Input Cc1cc(F)cc(B(O)O)c1 , output reported pKi.
Result: 6.00 to 8.00

Problem: Input OB(O)c1ccccc1OCc1ccccc1 , output reported pKi.
Result: < 6.00

###

pKi overview
target: human FAAH (Homo sapiens, UniProt O00519); construct: host or cells: COS-7 cells, transient transfection; 13,000 g membrane fraction solubilised in 1% Triton X-100; test: Human FAAH biochemical inhibition assay (AMC arachidonoyl amide fluorescence); details: Table 2, human FAAH (no asterisk); read-out: Activity (Ki)
pKi: −log10 of the molar value.

COc1ccc(Oc2ccc(B(O)O)cc2)cc1F ... > 8.00
c1ccc(B2CCCO2)cc1 ... < 6.00
O=C(C(Oc1ccc(B(O)O)cc1)c1ccccc1)N1CCCCC1 (centres unmarked) ... 6.00 to 8.00

Problem: Input OB(O)c1ccc(OC2CCCCC2)cc1 , output reported pKi.
Result: > 8.00

Problem: Input O=C(Nc1ccc(B(O)O)cc1)c1ccccc1 , output reported pKi.
Result: 6.00 to 8.00

Problem: Input OB(O)c1ccc(COC2C3CC4CC(C3)CC2C4)cc1 (centres unmarked) , output reported pKi.
Result: 7.00 to 8.00

Problem: Input OB(O)c1ccc(-c2cccc(F)c2)cc1F , output reported pKi.
Result: > 8.00

Problem: Input CC1(C)OB(c2ccc(OCCCCc3ccccc3)cc2)OC1(C)C , output reported pKi.
Result: 7.00 to 8.00

Problem: Input OB(O)c1ccc(OC2Cc3ccccc3C2)cc1F , output reported pKi.
Result: > 8.00

Problem: Input OB(O)c1ccc(OCCC2CCCCC2)cc1F , output reported pKi.
Result: > 8.00

Problem: Input O=[N+]([O-])c1cccc(CCOc2ccc(B(O)O)c(F)c2)c1 , output reported pKi.
Result: < 6.00
